Molecular target: human NPR1 (Homo sapiens)
Construct: host or cells: CHO-K1
Sequence (P16066 33-1061): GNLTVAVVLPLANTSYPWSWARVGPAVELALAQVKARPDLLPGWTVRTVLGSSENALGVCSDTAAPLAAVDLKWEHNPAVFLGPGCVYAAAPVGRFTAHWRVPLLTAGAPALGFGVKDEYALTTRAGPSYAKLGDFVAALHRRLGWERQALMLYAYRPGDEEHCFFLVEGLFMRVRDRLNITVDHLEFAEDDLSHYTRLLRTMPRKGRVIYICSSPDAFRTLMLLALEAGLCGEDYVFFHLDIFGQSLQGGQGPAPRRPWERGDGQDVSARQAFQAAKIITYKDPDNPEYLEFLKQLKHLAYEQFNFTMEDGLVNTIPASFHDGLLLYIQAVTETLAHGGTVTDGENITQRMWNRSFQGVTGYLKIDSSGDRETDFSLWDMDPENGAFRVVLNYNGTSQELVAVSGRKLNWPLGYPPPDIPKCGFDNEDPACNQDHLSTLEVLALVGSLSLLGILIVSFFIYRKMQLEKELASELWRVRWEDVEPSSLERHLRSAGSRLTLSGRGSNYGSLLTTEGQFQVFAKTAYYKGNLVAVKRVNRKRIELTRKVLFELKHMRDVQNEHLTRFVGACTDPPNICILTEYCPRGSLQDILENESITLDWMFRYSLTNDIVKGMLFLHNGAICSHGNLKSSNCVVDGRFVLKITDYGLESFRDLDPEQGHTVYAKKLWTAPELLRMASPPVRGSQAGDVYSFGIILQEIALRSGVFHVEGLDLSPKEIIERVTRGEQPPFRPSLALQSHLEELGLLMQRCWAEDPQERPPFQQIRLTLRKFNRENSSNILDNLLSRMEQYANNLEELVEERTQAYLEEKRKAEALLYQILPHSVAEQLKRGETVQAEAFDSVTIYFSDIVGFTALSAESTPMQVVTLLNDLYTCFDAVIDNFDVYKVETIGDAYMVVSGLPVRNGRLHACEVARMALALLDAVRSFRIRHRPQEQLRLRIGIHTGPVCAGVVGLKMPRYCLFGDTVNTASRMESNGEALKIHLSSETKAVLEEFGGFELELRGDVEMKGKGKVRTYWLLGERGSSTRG
Experiment: Cellular cGMP production assay, human NPR1 expressing CHO-K1 cells (CisBio HTRF)
Type: cell-based
Conditions: cGMP production, 30 min at 37° C., 12-point dose-response from 30 μM
Recorded AC50 by entry
Supply the numeric figure in nM, leaving out any unit text.

1) CC[C@H]([C@H]1CC[C@H](C(=O)O)CC1)N(C)c1nc2c(c(N[C@@H](CN3CCC[C@H](C)C3)c3cnn(C)c3)n1)C[C@@H](c1ccccc1)CC2 | 377
2) CC[C@H]([C@H]1CC[C@H](C(=O)O)CC1)N(C)c1nc2c(c(N[C@@H](CN3C4CCCC3CC4)c3cnc(C)s3)n1)C[C@H](c1cccc(F)c1)CC2 | 271
3) CC[C@@H](Nc1nc2c(c(N[C@@H](CN3CCCCCC3)c3cnn(C)c3)n1)C[C@H](c1cccc(F)c1)CC2)[C@H]1CC[C@H](C(=O)O)CC1 | 66
4) CC[C@H]([C@H]1CC[C@H](C(=O)O)CC1)N(C)c1nc2c(c(N[C@@H](CN3C4CCCC3CC4)c3cn(C)nc3C)n1)C[C@H](c1cccc(F)c1)CC2 | 382

From here, focus on the item given below.
Form field AC50, entry CC[C@H]([C@H]1CC[C@H](C(=O)O)CC1)N(C)c1nc2c(c(N[C@@H](CN3CCC[C@H](COC)C3)c3cnn(C)c3)n1)C[C@H](c1cccc(F)c1)CC2 : 148

====

Target: human NPR1 (Homo sapiens)
Construct: host or cells: CHO-K1
Sequence (P16066 33-1061): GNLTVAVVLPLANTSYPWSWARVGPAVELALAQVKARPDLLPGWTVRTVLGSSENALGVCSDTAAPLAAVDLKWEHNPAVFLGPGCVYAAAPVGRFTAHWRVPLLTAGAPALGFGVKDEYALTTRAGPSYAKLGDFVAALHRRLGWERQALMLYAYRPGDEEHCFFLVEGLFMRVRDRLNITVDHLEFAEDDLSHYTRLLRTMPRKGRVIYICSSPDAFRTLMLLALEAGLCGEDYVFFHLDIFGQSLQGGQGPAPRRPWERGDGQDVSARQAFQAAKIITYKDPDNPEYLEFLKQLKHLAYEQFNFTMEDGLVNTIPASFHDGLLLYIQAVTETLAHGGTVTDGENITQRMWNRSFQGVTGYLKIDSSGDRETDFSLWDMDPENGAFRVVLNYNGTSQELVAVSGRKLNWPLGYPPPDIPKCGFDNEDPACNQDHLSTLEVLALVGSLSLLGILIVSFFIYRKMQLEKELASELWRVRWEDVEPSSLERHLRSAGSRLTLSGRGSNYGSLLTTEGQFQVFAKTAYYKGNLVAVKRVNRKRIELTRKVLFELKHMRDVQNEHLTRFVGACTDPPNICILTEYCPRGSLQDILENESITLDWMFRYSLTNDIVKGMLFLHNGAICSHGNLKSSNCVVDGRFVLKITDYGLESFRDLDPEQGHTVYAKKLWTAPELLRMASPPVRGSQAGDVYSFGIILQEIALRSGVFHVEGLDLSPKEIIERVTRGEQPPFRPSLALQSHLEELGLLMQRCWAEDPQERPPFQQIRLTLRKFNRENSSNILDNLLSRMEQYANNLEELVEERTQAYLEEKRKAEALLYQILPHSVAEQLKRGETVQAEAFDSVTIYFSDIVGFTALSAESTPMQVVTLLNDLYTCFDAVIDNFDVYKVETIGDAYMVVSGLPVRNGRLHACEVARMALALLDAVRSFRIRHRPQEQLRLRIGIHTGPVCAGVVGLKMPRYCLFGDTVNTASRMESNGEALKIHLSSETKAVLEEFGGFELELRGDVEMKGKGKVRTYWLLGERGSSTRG
Test: Cellular cGMP production assay, human NPR1 expressing CHO-K1 cells (CisBio HTRF)
Assay type: cell-based
Details: maximum cGMP production as percentage of the maximum cGMP produced with ANP
Entries and their measured Human NPR1 Amax (% of ANP) follow.

Take a look at these entries with their results.
1. CC[C@H]([C@H]1CC[C@H](C(=O)O)CC1)N(C)c1nc2c(c(N[C@@H](CN3CCC[C@H](C)C3)c3cnn(C)c3)n1)C[C@H](c1ccc(F)cc1)CC2 | 94.761 % of ANP
2. CC[C@H]([C@H]1CC[C@H](C(=O)O)CC1)N(C)c1nc2c(c(N[C@@H](CN3CCC[C@H](C)C3)c3cnn(C)c3)n1)C[C@@H](c1cccc(F)c1)CC2 | 93.803 % of ANP

Then there is this molecule:
Sure, the documented Human NPR1 Amax (% of ANP) for CC[C@H]([C@H]1CC[C@H](C(=O)O)CC1)N(C)c1nc2c(c(N[C@@H](CN3C4CCCC3CC(O)C4)c3cnn(CC)c3)n1)C[C@H](c1cccc(F)c1)CC2 (stereo partly drawn) is 101.351 % of ANP

====

Collected AC50 values appear next to each entry.
target: monkey NPR1 (Macaca fascicularis, UniProt A0A7N9DBT9); experiment: Cellular cGMP production assay, monkey NPR1 expressing CHO-K1 cells (CisBio HTRF); assay type: cell-based; details: cGMP production, monkey NPR1 CHO-K1 cells, 30 min at 37° C., 12-point dose-response from 30 μM; read-out: Monkey NPR1 AC50
Sequence (A0A7N9DBT9 entry or part of it): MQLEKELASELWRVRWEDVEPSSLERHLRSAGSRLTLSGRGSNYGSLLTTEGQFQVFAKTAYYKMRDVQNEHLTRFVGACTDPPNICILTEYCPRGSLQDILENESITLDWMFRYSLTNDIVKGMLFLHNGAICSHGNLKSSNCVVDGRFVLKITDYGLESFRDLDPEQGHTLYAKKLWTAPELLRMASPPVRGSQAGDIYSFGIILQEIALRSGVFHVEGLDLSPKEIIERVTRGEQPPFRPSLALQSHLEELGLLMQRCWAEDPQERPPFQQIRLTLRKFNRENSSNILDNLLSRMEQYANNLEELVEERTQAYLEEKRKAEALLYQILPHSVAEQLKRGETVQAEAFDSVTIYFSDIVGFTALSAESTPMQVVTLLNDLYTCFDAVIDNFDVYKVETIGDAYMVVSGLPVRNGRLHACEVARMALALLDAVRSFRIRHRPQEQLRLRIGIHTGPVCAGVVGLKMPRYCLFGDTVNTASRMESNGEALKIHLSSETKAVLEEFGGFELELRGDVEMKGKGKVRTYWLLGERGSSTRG
# output: numeric value plus its unit

1) CC[C@@H](Nc1nc2c(c(N[C@@H](CN3CCCC4(CCC4)C3)c3cnn(CC)c3)n1)C[C@H](c1ccccc1)CC2)[C@H]1CC[C@H](C(=O)O)CC1 [Compound 126] | 452 nM
2) CC[C@H]([C@H]1CC[C@H](C(=O)O)CC1)N(C)c1nc2c(c(N[C@@H](CN3CCC[C@H](C)C3)c3cnn(C)c3)n1)CN(c1cccc(Cl)c1)CC2 [Compound 170] | 790 nM
3) CC[C@@H](Nc1nc2c(c(N[C@@H](CN3CCCC[C@H]3C)c3cnn(CC)c3)n1)C[C@H](c1ccccc1)CC2)[C@H]1CC[C@H](C(=O)O)CC1 [Compound 64] | 175 nM
4) CC[C@H]([C@H]1CC[C@H](C(=O)O)CC1)N(C)c1nc2c(c(N[C@@H](CN3CCCC(F)C3)c3cnn(C)c3)n1)C[C@H](c1ccccc1)CC2 (some centres unmarked) [Compound 156] | 1160 nM
5) CC[C@@H](Nc1nc2c(c(N[C@@H](CNC3CCOCC3)c3ccccc3)n1)C[C@H](c1ccccc1)CC2)[C@H]1CC[C@H](C(=O)O)CC1 [Compound 166] | 1980 nM
6) CC[C@@H](Nc1nc2c(c(N[C@@H](CN3CCC(C)CC3)c3cnn(C)c3)n1)C[C@H](c1ccccc1)CC2)[C@H]1CC[C@H](C(=O)O)CC1 [Compound 121] | 382 nM

Please look at the following compound next.
Record CC[C@@H](Nc1nc2c(c(N[C@@H](CN3CCC[C@@H](C)C3)c3cnn(C)c3)n1)C[C@H](c1ccccc1)CC2)[C@H]1CC[C@H](C(=O)O)CC1 [Compound 84] . Reported AC50: 191 nM
